Can you tell me EC50 for the items I'm about to list?
Tested on: HIV-1 (IIIB)
Assay method text: Inhibition of HIV-1 syncytium formation in CEM cells
Format: cell-based
Experimental setup: Human immunodeficiency virus 1, IIIB, CCRF-CEM, read-out: EC50 (μg/ml) HIV-1
Your answer should be a plain number; it is taken to be in µg/mL.

Please tell me the measured EC50 for CN1CCCC(CSc2cccc[n+]2[O-])C1 (stereo not drawn) [Compound 156] ; system: HIV-1 (IIIB).
16

Please tell me the measured EC50 for [O-][n+]1c(Cl)cccc1SCc1ccccc1 [Compound 149, 6-chloro-(2-benzylthio)pyridine-N-oxide] ; system: HIV-1 (IIIB).
9

Please tell me the measured EC50 for O=[N+]([O-])c1cccnc1SCc1ccccc1 [Compound 146, 2-benzylthio-3-nitropyridine] ; system: HIV-1 (IIIB).
2.3

Please tell me the measured EC50 for [O-][n+]1cccc(Cl)c1SCc1ccccc1 [Compound 132] ; system: HIV-1 (IIIB).
2.4

====

Tested on: CMV Davis strain
Assay method text: Activity against HCMV: virus-induced cytopathicity in HEL cells
Assay type: cell-based, human cytomegalovirus (HCMV)
Experimental setup: estimate of percent protection of HEL cells at the compound concentration
Measured quantity: Antiviral % Inhibition Davis strain (%)
Your answer should be a plain number; it is taken to be in %.

Identify the reported Antiviral % Inhibition Davis strain for the following entry. CN1CCCC(CSc2cccc[n+]2[O-])C1 (stereo not shown)
0.0

Identify the reported Antiviral % Inhibition Davis strain for the following entry. `Cc1ccc(CS(=O)(=O)c2cccc[n+]2[O-])cc1[N+](=O)[O-]`
20.0

Identify the reported Antiviral % Inhibition Davis strain for the following entry. CCc1cccc2c(C)cc(S(=O)(=O)C(C)c3ccccc3)nc12 (stereo not shown)
0.0

Identify the reported Antiviral % Inhibition Davis strain for the following entry. Cc1ccc(N)cc1C(C)S(=O)(=O)c1cccc[n+]1[O-] (stereo not shown)
0.0

Identify the reported Antiviral % Inhibition Davis strain for the following entry. `[O-][n+]1cccc(Cl)c1SCc1ccccc1`
0.0

Identify the reported Antiviral % Inhibition Davis strain for the following entry. `O=[N+]([O-])c1ccc(CS(=O)(=O)c2cccc[n+]2[O-])c(Cl)c1`
20.0

Identify the reported Antiviral % Inhibition Davis strain for the following entry. `Cc1ccc(C)c(CSc2ccccn2)c1.Cl`
0.0

====

Tested on: CMV Davis strain
Assay method text: Activity against HCMV: virus-induced cytopathicity in HEL cells
Format: cell-based, human cytomegalovirus (HCMV)
Experimental setup: Human betaherpesvirus 5, 168 h; CMV-infected HEL cells, virus-induced cytopathicity after seven days; read-out: Antiviral IC50 (μg/ml) Davis strain
Measured quantity: IC50 (µg/mL)
Your answer should be a plain number; it is taken to be in µg/mL.

Identify the reported IC50 for the following entry. `O=[N+]([O-])c1cc(CS(=O)(=O)c2cccc[n+]2[O-])cc([N+](=O)[O-])c1`
5

Identify the reported IC50 for the following entry. `CCC(C)(C)c1ccc(CS(=O)(=O)c2cccc[n+]2[O-])cc1`
1.5

Identify the reported IC50 for the following entry. `O=S(=O)(Cc1c2ccccc2cc2ccccc12)c1cccc[n+]1[O-]`
1.3

Identify the reported IC50 for the following entry. `Cc1ccc[n+]([O-])c1S(=O)(=O)Cc1c(Cl)cccc1Cl`
43

Identify the reported IC50 for the following entry. Cc1ccc(C)c(C(Cl)S(=O)(=O)c2ccccn2)c1 (centres unmarked)
20

Identify the reported IC50 for the following entry. `CC(C)c1cc(CS(=O)(=O)c2cccc[n+]2[O-])c(C(C)C)cc1Br`
3.7

Identify the reported IC50 for the following entry. Cc1ccc(C)c(C(Cl)S(=O)(=O)c2c(Cl)ccc[n+]2[O-])c1 (centres unmarked)
31.5

Identify the reported IC50 for the following entry. `Cc1cc(CS(=O)(=O)c2cccc[n+]2[O-])ccc1[N+](=O)[O-]`
5

Identify the reported IC50 for the following entry. [O-][n+]1cccc(Cl)c1[S+]([O-])Cc1ccccc1 (centres unmarked)
4.7

Identify the reported IC50 for the following entry. Cc1ccc(C)c(C(C)S(=O)(=O)c2ccccn2)c1 (centres unmarked)
38

Identify the reported IC50 for the following entry. Cc1ccc(C)c(C(C)S(=O)(=O)c2cc(C)cc(C)[n+]2[O-])c1 (centres unmarked)
8.6

Identify the reported IC50 for the following entry. `Cc1ccc(C)c(CS(=O)(=O)c2cccc(Cl)[n+]2[O-])c1`
11

====

Can you tell me melting point for the items I'm about to list?

Identify the reported melting point for the following entry. Cc1ccc(C)c(C(C)S(=O)(=O)c2cccc(Cl)[n+]2[O-])c1 (centres unmarked)
197 to 200 °C

Identify the reported melting point for the following entry. `O=[N+]([O-])c1cc(CS(=O)(=O)c2cccc[n+]2[O-])ccc1Cl`
168 to 170 °C

Identify the reported melting point for the following entry. Cc1ccc(C)c(C(Cl)S(=O)(=O)c2ccccn2)c1 (centres unmarked)
117 to 119 °C

Identify the reported melting point for the following entry. [O-][n+]1c(Cl)cccc1SCc1ccccc1 [Compound 149, 6-chloro-(2-benzylthio)pyridine-N-oxide]
112 to 115 °C

Identify the reported melting point for the following entry. Cc1ccc(C)c(C(C)S(=O)(=O)c2cc(C)cc(C)[n+]2[O-])c1 (centres unmarked)
201 to 204 °C

====

Test system: HIV-1 (IIIB)
Assay method text: Inhibition of HIV-1 syncytium formation in CEM cells
Assay type: cell-based
Experimental setup: Human immunodeficiency virus 1, CCRF-CEM; HIV-1 (IIIB) infected CEM cells, syncytium formation, day four post infection; read-out: EC50 (μg/ml) HIV-1
Field 'label' (enum: 1 / 0). Set to 1 when EC50 is strictly under 3 µg/mL; else 0.

Criterion: EC50 strictly below 3 µg/mL. Is it met by Cc1ccc[n+]([O-])c1[S+]([O-])Cc1c(Cl)cccc1Cl (stereo not shown) ?
0

Criterion: EC50 strictly below 3 µg/mL. Is it met by `O=[N+]([O-])c1ccc(CS(=O)(=O)c2cccc[n+]2[O-])c(Cl)c1` ?
1

Criterion: EC50 strictly below 3 µg/mL. Is it met by CCc1cccc2c(C)cc(S(=O)(=O)C(C)c3ccccc3)nc12 (stereo not shown) ?
1

Criterion: EC50 strictly below 3 µg/mL. Is it met by [O-][n+]1cccc(Cl)c1[S+]([O-])Cc1ccccc1 (stereo not shown) ?
1

Criterion: EC50 strictly below 3 µg/mL. Is it met by Cc1ccc(C)c(C(C)S(=O)(=O)c2ccccn2)c1 (stereo not shown) ?
0

Criterion: EC50 strictly below 3 µg/mL. Is it met by Cc1ccc(C)c(C(C)S(=O)(=O)c2cccc(Cl)[n+]2[O-])c1 (stereo not shown) ?
1

Criterion: EC50 strictly below 3 µg/mL. Is it met by COCC(c1cc(C)ccc1C)S(=O)(=O)c1ccccn1 (stereo not shown) ?
0

Criterion: EC50 strictly below 3 µg/mL. Is it met by `COc1ccc(CSc2cc(C(C)(C)C)cc[n+]2[O-])cc1` ?
0

Criterion: EC50 strictly below 3 µg/mL. Is it met by `Cc1ccc(C)c(CS(=O)(=O)c2cccc(Cl)[n+]2[O-])c1` ?
1

Criterion: EC50 strictly below 3 µg/mL. Is it met by `Cc1ccc(C)c(CSc2ccccn2)c1.Cl` ?
0

Criterion: EC50 strictly below 3 µg/mL. Is it met by `Cc1ccc[n+]([O-])c1S(=O)(=O)Cc1c(Cl)cccc1Cl` ?
0

Criterion: EC50 strictly below 3 µg/mL. Is it met by `CC(C)c1cc(CS(=O)(=O)c2cccc[n+]2[O-])c(C(C)C)cc1Br` ?
1

Criterion: EC50 strictly below 3 µg/mL. Is it met by `CCC(C)(C)c1ccc(CS(=O)(=O)c2cccc[n+]2[O-])cc1` ?
0

Criterion: EC50 strictly below 3 µg/mL. Is it met by `Cc1ccc([N+](=O)[O-])c(CS(=O)(=O)c2cccc[n+]2[O-])c1` ?
1

Criterion: EC50 strictly below 3 µg/mL. Is it met by `O=[N+]([O-])c1cc(CS(=O)(=O)c2cccc[n+]2[O-])cc([N+](=O)[O-])c1` ?
1

====

System: HIV-1 (IIIB)
Assay method text: Inhibition of HIV-1 syncytium formation in CEM cells
Type: cell-based
Experimental setup: Human immunodeficiency virus 1, IIIB, CCRF-CEM, read-out: EC50 (μg/ml) HIV-1
Measured quantity: EC50

Identify the reported EC50 for the following entry. Cc1ccc(C)c(C(C)Sc2cc(C)c3ccccc3n2)c1 (centres unmarked) [Compound 162]
> 0.8 µg/mL

Identify the reported EC50 for the following entry. COc1ccc(C=C(C#N)Sc2cccc[n+]2[O-])cc1 [Compound 159]
> 20 µg/mL

Identify the reported EC50 for the following entry. Cc1ccc[n+]([O-])c1SCc1c(Cl)cccc1Cl [Compound 137]
> 20 µg/mL

Identify the reported EC50 for the following entry. [O-][n+]1cc(Cl)ccc1SCc1ccccc1 [Compound 151, 5-chloro-2(benzylthio)pyridine-N-oxide]
> 20 µg/mL

Identify the reported EC50 for the following entry. COc1cc(C=C(C#N)Sc2cccc[n+]2[O-])cc(OC)c1OC [Compound 160]
> 20 µg/mL

Reference for the values: patent US6498254B1
